assayName: Bioavailability in multiple species
measurementContext: in vivo, oral
Where a name gives a salt, the structure may show the parent alone.
parameterMeasured: bioavailability

{"molecule": "Cc1cnc(Nc2ccc(OCCN3CCCC3)cc2)nc1Nc1cccc(S(=O)(=O)NC(C)(C)C)c1 [TG101348, dihydrochloride monohydrate]", "parameterMeasured": "bioavailability", "reading": "20 to 25%"}

// provenance: patent US20210244735A1
